target: ΔF508-CFTR (Homo sapiens, UniProt P13569, DEL508-508); experiment: Membrane potential optical (FRET/VIPR) assay, identification of potentiator compounds; conditions: Table 3; assay not given
Sequence (P13569 with tags, fused parts or gaps DEL508-508): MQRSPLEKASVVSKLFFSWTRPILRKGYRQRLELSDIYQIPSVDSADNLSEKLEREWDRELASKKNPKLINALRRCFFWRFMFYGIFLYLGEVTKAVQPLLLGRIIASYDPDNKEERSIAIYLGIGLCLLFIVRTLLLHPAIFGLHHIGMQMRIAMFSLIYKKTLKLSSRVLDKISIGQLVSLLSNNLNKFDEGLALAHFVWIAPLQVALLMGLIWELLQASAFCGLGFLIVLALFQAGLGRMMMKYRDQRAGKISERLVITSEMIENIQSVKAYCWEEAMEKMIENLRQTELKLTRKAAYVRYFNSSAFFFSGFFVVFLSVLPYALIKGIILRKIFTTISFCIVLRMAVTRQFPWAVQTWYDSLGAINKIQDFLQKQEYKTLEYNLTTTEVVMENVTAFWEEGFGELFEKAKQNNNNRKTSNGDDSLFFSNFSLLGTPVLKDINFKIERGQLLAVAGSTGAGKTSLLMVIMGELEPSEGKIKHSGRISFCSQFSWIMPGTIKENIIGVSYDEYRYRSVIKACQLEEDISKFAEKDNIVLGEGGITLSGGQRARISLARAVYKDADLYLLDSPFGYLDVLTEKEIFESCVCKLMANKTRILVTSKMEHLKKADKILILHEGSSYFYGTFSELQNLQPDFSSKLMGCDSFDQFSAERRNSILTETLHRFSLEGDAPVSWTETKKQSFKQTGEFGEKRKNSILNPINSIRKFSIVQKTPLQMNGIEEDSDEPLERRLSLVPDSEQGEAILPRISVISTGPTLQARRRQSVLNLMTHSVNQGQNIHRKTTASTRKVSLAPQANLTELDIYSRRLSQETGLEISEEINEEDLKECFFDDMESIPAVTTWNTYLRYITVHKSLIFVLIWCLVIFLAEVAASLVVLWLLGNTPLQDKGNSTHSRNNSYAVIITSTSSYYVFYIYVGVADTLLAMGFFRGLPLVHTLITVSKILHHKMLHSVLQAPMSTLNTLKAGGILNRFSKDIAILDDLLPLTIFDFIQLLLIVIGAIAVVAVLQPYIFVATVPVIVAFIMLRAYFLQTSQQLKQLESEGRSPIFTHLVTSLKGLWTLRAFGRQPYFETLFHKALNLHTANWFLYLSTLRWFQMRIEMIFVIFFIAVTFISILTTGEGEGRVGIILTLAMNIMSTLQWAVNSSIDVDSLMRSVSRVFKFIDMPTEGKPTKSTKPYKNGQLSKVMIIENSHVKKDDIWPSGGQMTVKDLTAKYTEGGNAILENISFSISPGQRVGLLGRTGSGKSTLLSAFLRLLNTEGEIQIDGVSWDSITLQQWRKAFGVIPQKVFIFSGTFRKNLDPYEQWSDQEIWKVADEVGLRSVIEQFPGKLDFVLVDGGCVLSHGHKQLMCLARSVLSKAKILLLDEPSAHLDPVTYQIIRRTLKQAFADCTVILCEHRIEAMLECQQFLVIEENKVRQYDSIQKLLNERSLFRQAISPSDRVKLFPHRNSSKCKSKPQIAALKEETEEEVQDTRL
Readings of EC50 for the listed compounds
experimental readout: EC50

1. CCOc1ccc2[nH]cc(C(=O)Nc3cc4[nH]ccc4cc3C(C)(C)C)c(=O)c2c1; < 10 µM
2. C[C@H]1CCCN1c1ccc(NC(=O)c2c[nH]c3ccc(F)cc3c2=O)c(C(F)(F)F)c1; < 10 µM
3. O=C(Nc1ccccc1Oc1ccc(Cl)cc1Cl)c1c[nH]c2ccccc2c1=O; < 10 µM
4. CC(C)(C)c1cc(F)c(NC(=O)c2c[nH]c3cccc(F)c3c2=O)cc1O; < 10 µM

* * *

biological target: ΔF508-CFTR (Homo sapiens, UniProt P13569, DEL508-508); experiment: Membrane potential optical (FRET/VIPR) assay, identification of potentiator compounds; conditions: Table 3; assay not given
pEC50: −log10 of the molar value.
experimental readout: pEC50

1. CCCc1ccc(NC(=O)c2c[nH]c3ccccc3c2=O)cc1N; > 5.00
2. CC(=O)Nc1cc(NC(=O)c2c[nH]c3ccccc3c2=O)cc(C(F)(F)F)c1; 4.60 to 5.00
3. COC(=O)c1cccc(-c2cc(C(C)(C)C)c(O)cc2NC(=O)c2c[nH]c3ccccc3c2=O)c1; > 5.00
4. O=C(Nc1ccccc1-c1ccccc1F)c1c[nH]c2ccccc2c1=O; > 5.00
5. Nc1cccc(NC(=O)c2c[nH]c3ccccc3c2=O)c1; 4.60 to 5.00
6. Cc1c[nH]c2cccc(NC(=O)c3c[nH]c4ccccc4c3=O)c12; 4.60 to 5.00
7. O=C(Nc1ccccc1CCO)c1c[nH]c2ccccc2c1=O; 4.22 to 4.60
8. CCc1c[nH]c2cc(NC(=O)c3c[nH]c4ccccc4c3=O)ccc12; > 5.00
9. Cc1cc(C(C)(C)C)c(O)cc1NC(=O)c1c[nH]c2cccc(O)c2c1=O; > 5.00

* * *

// reported pEC50 per item
biological target: ΔF508-CFTR (Homo sapiens, UniProt P13569, DEL508-508); construct: expressed in transfected cells; test: Membrane potential optical (FRET/VIPR) assay, identification of potentiator compounds; format: cell-based; details: Table 3; assay not given
pEC50: −log10 of the molar value.
experimental readout: pEC50

1) CCc1ccccc1NC(=O)c1c[nH]c2ccccc2c1=O [Compound 72]; > 5.00
2) O=C(Nc1cccc2cc[nH]c12)c1c[nH]c2ccccc2c1=O [Compound 37]; > 5.00
3) Cn1cnnc1-c1ccc(NC(=O)c2c[nH]c3ccccc3c2=O)cc1 [Compound 301]; 4.22 to 4.60
4) O=C(Nc1ccc(C(F)(F)F)cc1)c1c[nH]c2ccccc2c1=O [Compound 236]; > 5.00
5) CCOc1cccc(-c2cc(C(C)(C)C)c(O)cc2NC(=O)c2c[nH]c3ccccc3c2=O)c1 [Compound 43]; > 5.00
6) N#CCc1c[nH]c2cc(NC(=O)c3c[nH]c4ccccc4c3=O)ccc12 [Compound 96]; > 5.00
7) CC(C)(C)c1cccc(NC(=O)c2c[nH]c3ccccc3c2=O)c1 [Compound 602]; > 5.00
8) Cc1cc2cc(NC(=O)c3c[nH]c4ccccc4c3=O)ccc2[nH]1 [Compound 230]; 4.60 to 5.00
9) CC(C)(C)OC(=O)Nc1ccc(C(C)(C)C)c(NC(=O)c2c[nH]c3ccccc3c2=O)c1 [Compound 353]; > 5.00

* * *

target: ΔF508-CFTR (Homo sapiens, UniProt P13569, DEL508-508); assay: Membrane potential optical (FRET/VIPR) assay, identification of potentiator compounds; conditions: Table 3; assay not given
pEC50: −log10 of the molar value.
experimental readout: pEC50

1) C#Cc1ccc(NC(=O)c2c[nH]c3ccccc3c2=O)cc1; > 5.00
2) CCc1cc(C(C)(C)C)c(O)cc1NC(=O)c1c[nH]c2ccccc2c1=O; > 5.00
3) O=C(Nc1ccccc1Oc1ncc(C(F)(F)F)cc1Cl)c1c[nH]c2ccccc2c1=O; > 5.00
4) O=C(Nc1ccc2nccnc2c1)c1c[nH]c2ccccc2c1=O; 4.22 to 4.60
5) O=C(Nc1ccc2nc[nH]c2c1)c1c[nH]c2ccccc2c1=O; 4.22 to 4.60
6) O=C(Nc1cc2[nH]ccc2cc1-c1cccnc1)c1c[nH]c2ccccc2c1=O; > 5.00
7) COc1cc(NC(=O)c2c[nH]c3ccccc3c2=O)cc2ccccc12; > 5.00
8) CN(C)[C@@H]1CCN(c2ccc(NC(=O)c3c[nH]c4ccccc4c3=O)c(C(F)(F)F)c2)C1; > 5.00
9) CN(C)[C@H]1CCN(c2ccc(NC(=O)c3c[nH]c4ccccc4c3=O)c(C(F)(F)F)c2)C1; > 5.00
10) O=C(Nc1ccc2cc[nH]c2c1)c1cnc2c(F)cc(F)cc2c1O; 4.60 to 5.00
11) COc1cc(NC(=O)c2c[nH]c3ccccc3c2=O)ccc1-n1c(C)ccc1C; > 5.00
12) COC(=O)[C@@H]1C[C@@H](OC(C)(C)C)CN1c1ccc(NC(=O)c2c[nH]c3ccccc3c2=O)c(C(F)(F)F)c1; > 5.00
13) COc1cc(NC(=O)c2c[nH]c3ccccc3c2=O)cc(C(F)(F)F)c1; > 5.00
14) O=C(Nc1cc(O)c(C2CCCC2)cc1C#CCO)c1c[nH]c2ccccc2c1=O; > 5.00
15) O=C(Nc1cccc2ccccc12)c1c[nH]c2ccccc2c1=O; > 5.00
16) O=C(Nc1ccccc1-c1ccc(Oc2ccccc2)cc1)c1c[nH]c2ccccc2c1=O; > 5.00
17) CC(C)(C)OC(=O)NCCc1c[nH]c2cc(NC(=O)c3c[nH]c4ccccc4c3=O)ccc12; > 5.00

* * *

Let's look at some compounds and their measured pEC50.
target: ΔF508-CFTR (Homo sapiens, UniProt P13569, DEL508-508); construct: expressed in transfected cells; assay: Membrane potential optical (FRET/VIPR) assay, identification of potentiator compounds; format: cell-based; details: Table 3; assay not given
From the text: […]
pEC50: −log10 of the molar value.
experimental readout: pEC50

1. CC(=O)N1CCc2ccc(NC(=O)c3c[nH]c4ccccc4c3=O)cc2C1; 4.60 to 5.00
2. CC(C)(C)c1ccc(NC(=O)c2c[nH]c3ccccc3c2=O)cc1O; > 5.00
3. O=C(Nc1ccccc1-c1ccc(F)cc1F)c1c[nH]c2ccccc2c1=O; > 5.00
4. Nc1nc2ccc(NC(=O)c3c[nH]c4ccccc4c3=O)cc2s1; > 5.00
5. Cc1ccc2c(c1)c(=O)c(C(=O)Nc1ccccc1)cn2C; 4.22 to 4.60
6. Cc1ccc2[nH]cc(C(=O)Nc3ccc(N4CCC(C)(C)C4)cc3C(F)(F)F)c(=O)c2c1; > 5.00
7. CCc1cc2cc[nH]c2cc1NC(=O)c1c[nH]c2cccc(O)c2c1=O; > 5.00
8. CC(C)(C)c1cc(C(F)(F)F)c(NC(=O)c2c[nH]c3ccc(F)cc3c2=O)cc1O; > 5.00
9. CC1(c2cc(F)c(NC(=O)c3c[nH]c4cccc(O)c4c3=O)cc2O)CCCCC1; > 5.00

* * *

Reported EC50 values follow for various molecules
molecular target: ΔF508-CFTR (Homo sapiens, UniProt P13569, DEL508-508); experiment: Membrane potential optical (FRET/VIPR) assay, identification of potentiator compounds; conditions: Table 3; assay not given
experimental readout: EC50

1. Cc1cccc2[nH]cc(C(=O)Nc3cc4[nH]ccc4cc3C(C)(C)C)c(=O)c12; < 10 µM
2. CCc1cc(C(C)(C)C)c(O)cc1NC(=O)c1c[nH]c2ccc(F)cc2c1=O; < 10 µM
3. CC1CCN(S(=O)(=O)c2ccc3[nH]cc(C(=O)Nc4cc5[nH]ccc5cc4C(C)(C)C)c(=O)c3c2)CC1; < 10 µM
4. Cc1cccc2c(=O)c(C(=O)Nc3cc(O)c(C(C)(C)C)cc3F)c[nH]c12; < 10 µM
5. C[S+]([O-])c1ccc(-c2ccccc2NC(=O)c2c[nH]c3ccccc3c2=O)cc1 (centres unmarked); < 10 µM
6. O=C(Nc1ccc(Cl)nc1)c1c[nH]c2ccccc2c1=O; 25 to 60 µM
7. CC1(c2cc(F)c(NC(=O)c3c[nH]c4cccc(C(F)(F)F)c4c3=O)cc2O)CCCCC1; < 10 µM
8. CC(C)(C)c1cc(F)c(NC(=O)c2c[nH]c3cc(F)c(F)cc3c2=O)cc1O; < 10 µM
9. O=C(Nc1cccc(SC(F)(F)F)c1)c1c[nH]c2ccccc2c1=O; < 10 µM
10. O=C(Nc1ccc2oc(-c3ccccc3)nc2c1)c1c[nH]c2ccccc2c1=O; 25 to 60 µM
11. CC(=O)c1ccc(-c2ccccc2NC(=O)c2c[nH]c3ccccc3c2=O)s1; < 10 µM
12. O=C(Nc1ccc2c(c1)NCC21CC1)c1c[nH]c2ccccc2c1=O; 10 to 25 µM
13. O=C(Nc1ccc(Cl)cc1)c1c[nH]c2ccccc2c1=O; < 10 µM
14. CC(CO)(CO)c1ccc(NC(=O)c2c[nH]c3ccccc3c2=O)cc1; < 10 µM
15. O=C(Nc1ccccc1-c1ccccc1OC(F)(F)F)c1c[nH]c2ccccc2c1=O; < 10 µM
16. O=C(Nc1ccc2[nH]c(=O)[nH]c2c1)c1c[nH]c2ccccc2c1=O; 25 to 60 µM
17. CCc1cc2cc[nH]c2cc1NC(=O)c1c[nH]c2ccccc2c1=O; < 10 µM
